target: ZNF566 peptide/HLA-A*02:01 complex (recombinant) (human); test: SPR
OUTCOME MEASURE: binding result

AS170036 VL1VH1-VHG56F (scFv) scFv: QSALTQPRSVSGSPGQSVTISCAGTSSDVGSENYVSWYQQHPGKAPKLMIYQVNKRASGVPDRFSGSKSGNTASLTISGLQAEDEADYYCASYRSSDHNIVFGGGTKLTVLGGGGSGGGGSGGGGSEVQLVESGGGLVQPGGSLRLSCAASGFTFSSYAMSWVRQAPGKGLEWVSTINSGTFSPYYADSVKGRFTISRDNSKNTLYLQMNSLRAEDTAVYYCAKNFFDGSWFLGPPAMDYWGQGTLVTVSSHHHHHH
no binding
AS170036 VL1VH1-VLH98A (scFv) scFv: QSALTQPRSVSGSPGQSVTISCAGTSSDVGSENYVSWYQQHPGKAPKLMIYQVNKRASGVPDRFSGSKSGNTASLTISGLQAEDEADYYCASYRSSDANIVFGGGTKLTVLGGGGSGGGGSGGGGSEVQLVESGGGLVQPGGSLRLSCAASGFTFSSYAMSWVRQAPGKGLEWVSTINSGTGSPYYADSVKGRFTISRDNSKNTLYLQMNSLRAEDTAVYYCAKNFFDGSWFLGPPAMDYWGQGTLVTVSSHHHHHH
no binding
AS170036 VL1VH1-VLE32W (scFv) scFv: QSALTQPRSVSGSPGQSVTISCAGTSSDVGSWNYVSWYQQHPGKAPKLMIYQVNKRASGVPDRFSGSKSGNTASLTISGLQAEDEADYYCASYRSSDHNIVFGGGTKLTVLGGGGSGGGGSGGGGSEVQLVESGGGLVQPGGSLRLSCAASGFTFSSYAMSWVRQAPGKGLEWVSTINSGTGSPYYADSVKGRFTISRDNSKNTLYLQMNSLRAEDTAVYYCAKNFFDGSWFLGPPAMDYWGQGTLVTVSSHHHHHH
no binding
